We begin with a simple list: items and their reported inhibition at 20 µM.
- ASSAYED_TARGET: NKCC1 (Homo sapiens, UniProt P55011)
- Construct: endogenous in cells; host or cells: native HEK293 cells
- Sequence (P55011 1-1212): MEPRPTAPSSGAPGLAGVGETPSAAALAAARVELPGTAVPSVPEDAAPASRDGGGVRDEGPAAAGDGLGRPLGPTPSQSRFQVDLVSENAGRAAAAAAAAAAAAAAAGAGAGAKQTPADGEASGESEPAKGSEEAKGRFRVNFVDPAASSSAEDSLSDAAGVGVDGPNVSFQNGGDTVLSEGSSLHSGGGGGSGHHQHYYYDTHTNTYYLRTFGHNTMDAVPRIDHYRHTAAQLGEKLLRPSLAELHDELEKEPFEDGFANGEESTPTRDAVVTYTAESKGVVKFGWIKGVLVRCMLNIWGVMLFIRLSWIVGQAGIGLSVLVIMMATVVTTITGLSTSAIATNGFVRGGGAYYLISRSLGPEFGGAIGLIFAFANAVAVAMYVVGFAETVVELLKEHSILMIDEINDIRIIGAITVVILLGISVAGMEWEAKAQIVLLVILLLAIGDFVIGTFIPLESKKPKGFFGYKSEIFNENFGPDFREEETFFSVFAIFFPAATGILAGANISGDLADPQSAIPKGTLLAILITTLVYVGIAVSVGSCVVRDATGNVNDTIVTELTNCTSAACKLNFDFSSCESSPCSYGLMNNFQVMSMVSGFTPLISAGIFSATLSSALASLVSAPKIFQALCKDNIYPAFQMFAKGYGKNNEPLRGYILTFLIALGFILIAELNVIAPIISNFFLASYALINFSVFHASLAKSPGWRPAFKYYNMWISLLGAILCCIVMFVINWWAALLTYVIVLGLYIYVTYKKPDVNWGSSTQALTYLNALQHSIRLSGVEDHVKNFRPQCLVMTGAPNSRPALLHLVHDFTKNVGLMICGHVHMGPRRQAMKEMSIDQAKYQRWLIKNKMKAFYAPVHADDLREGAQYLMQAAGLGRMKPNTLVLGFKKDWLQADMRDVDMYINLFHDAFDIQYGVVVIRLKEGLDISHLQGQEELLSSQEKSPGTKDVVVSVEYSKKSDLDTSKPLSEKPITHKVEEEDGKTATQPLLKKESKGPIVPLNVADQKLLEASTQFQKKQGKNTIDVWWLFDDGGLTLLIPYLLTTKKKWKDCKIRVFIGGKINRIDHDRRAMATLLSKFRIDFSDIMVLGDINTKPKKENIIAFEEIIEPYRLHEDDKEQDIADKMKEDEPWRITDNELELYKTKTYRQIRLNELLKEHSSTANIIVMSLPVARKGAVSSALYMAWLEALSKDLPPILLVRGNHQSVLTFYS
- ASSAY: NKCC1-mediated K+ influx (83Rb tracer uptake) in native HEK293 cells, hypertonic saline, 100 μM ouabain
- Type: cell-based
- APPLIED_CONDITIONS: HEK293; 20 μM; no drug = 1000, 20 μM bumetanide = 0; read-out: NKCC1 mediated flux inhibition at 20 μM (%)

[
  {
    "COMPOUND": "CCCCNc1cc(C(=O)OC)cc(S(=N)(=O)N2CCCCCC2)c1Oc1ccccc1 (stereo not drawn) [Compound 11]",
    "inhibition at 20 µM": "50 to 75%"
  },
  {
    "COMPOUND": "CCCCNc1cc(C(=O)OC)cc(S(=N)(N)=O)c1Oc1ccccc1 (stereo not drawn) [Compound 25]",
    "inhibition at 20 µM": "30 to 50%"
  },
  {
    "COMPOUND": "CCCCNc1cc(-c2nc(=O)o[nH]2)cc(S(=O)(=O)Nc2ccccc2)c1Oc1ccccc1 [Compound 127]",
    "inhibition at 20 µM": "30 to 50%"
  },
  {
    "COMPOUND": "CCCCNc1cc(C(=O)O)cc(S(=N)(=O)NCc2ccccc2)c1Oc1ccccc1 (stereo not drawn) [Compound 58]",
    "inhibition at 20 µM": "≥ 75%"
  },
  {
    "COMPOUND": "CCCCNc1cc(C(=O)O)cc(S(=N)(=O)N2CCCC2)c1Oc1ccccc1 (stereo not drawn) [Compound 53]",
    "inhibition at 20 µM": "≥ 75%"
  },
  {
    "COMPOUND": "CCCCNc1cc(C(=O)OC)cc(S(=N)(=O)N2CC3CCC(C2)O3)c1Oc1ccccc1 (stereo not drawn) [Compound 20]",
    "inhibition at 20 µM": "10 to 30%"
  },
  {
    "COMPOUND": "CCCCNc1cc(C(=O)OC)cc(S(=N)(=O)NC2CCOCC2)c1Oc1ccccc1 (stereo not drawn) [Compound 29]",
    "inhibition at 20 µM": "10 to 30%"
  },
  {
    "COMPOUND": "CCCCNc1cc(C(=O)NCCOC)cc(S(=N)(=O)NC2CCOCC2)c1Oc1ccccc1 (stereo not drawn) [Compound 122]",
    "inhibition at 20 µM": "30 to 50%"
  },
  {
    "COMPOUND": "CCCCNc1cc(C(=O)OC)cc(S(=N)(=O)Nc2ccnnc2)c1Oc1ccccc1 (stereo not drawn) [Compound 45]",
    "inhibition at 20 µM": "30 to 50%"
  },
  {
    "COMPOUND": "CCCCNc1cc(C(=O)OC)cc(S(=N)(=O)NCC2CCN(C(C)=O)CC2)c1Oc1ccccc1 (stereo not drawn) [Compound 49]",
    "inhibition at 20 µM": "10 to 30%"
  },
  {
    "COMPOUND": "CCCCNc1cc(C(=O)O)cc(S(=N)(=O)N2CCCCCC2)c1Oc1ccccc1 (stereo not drawn) [Compound 61]",
    "inhibition at 20 µM": "≥ 75%"
  },
  {
    "COMPOUND": "CCCCNc1cc(C(=O)OC)cc(S(=N)(=O)NC2CN3CCC2CC3)c1Oc1ccccc1 (stereo not drawn) [Compound 48]",
    "inhibition at 20 µM": "50 to 75%"
  },
  {
    "COMPOUND": "CCCCNc1cc(C(=O)OC)cc(S(=N)(=O)Nc2cccc(OC(F)F)c2)c1Oc1ccccc1 (stereo not drawn) [Compound 28]",
    "inhibition at 20 µM": "30 to 50%"
  },
  {
    "COMPOUND": "CCCCNc1cc(C(=O)NCCOC)cc(S(=N)(=O)N2Cc3ccccc3C2)c1Oc1ccccc1 (stereo not drawn) [Compound 114]",
    "inhibition at 20 µM": "10 to 30%"
  },
  {
    "COMPOUND": "CCCCNc1cc(C(=O)NCC2CC2)cc(S(=N)(=O)Nc2ccccc2)c1Oc1ccccc1 (stereo not drawn) [Compound 107]",
    "inhibition at 20 µM": "10 to 30%"
  },
  {
    "COMPOUND": "CCCCNc1cc(C(=O)OC)cc(S(=N)(=O)Nc2ccc(Cl)cc2)c1Oc1ccccc1 (stereo not drawn) [Compound 27]",
    "inhibition at 20 µM": "10 to 30%"
  },
  {
    "COMPOUND": "CCCCNc1cc(C(=O)O)cc(S(C)(=O)=NC)c1Oc1ccccc1 (stereo not drawn) [Compound 134]",
    "inhibition at 20 µM": "50 to 75%"
  },
  {
    "COMPOUND": "CCCCNc1cc(C(=O)O)cc(S(=N)(=O)N2CC3CCC(C2)O3)c1Oc1ccccc1 (stereo not drawn) [Compound 69]",
    "inhibition at 20 µM": "50 to 75%"
  },
  {
    "COMPOUND": "CCCCNc1cc(C(=O)NCCOC)cc(S(=N)(=O)NCc2cccc(Cl)c2)c1Oc1ccccc1 (stereo not drawn) [Compound 118]",
    "inhibition at 20 µM": "10 to 30%"
  },
  {
    "COMPOUND": "CCCCNc1cc(C(=O)OC)cc(S(=N)(=O)Nc2ncccn2)c1Oc1ccccc1 (stereo not drawn) [Compound 31]",
    "inhibition at 20 µM": "10 to 30%"
  },
  {
    "COMPOUND": "CCCCNc1cc(C(=O)O)cc(S(=N)(=O)N2CCOCC2)c1Oc1ccccc1 (stereo not drawn) [Compound 56]",
    "inhibition at 20 µM": "30 to 50%"
  },
  {
    "COMPOUND": "CCCCNc1cc(C(=O)O)cc(S(=N)(=O)Nc2ccccc2Cl)c1Oc1ccccc1 (stereo not drawn) [Compound 77]",
    "inhibition at 20 µM": "≥ 75%"
  },
  {
    "COMPOUND": "CCCCNc1cc(C(=O)O)cc(S(=N)(=O)NC2CCOCC2)c1Oc1ccccc1 (stereo not drawn) [Compound 75]",
    "inhibition at 20 µM": "30 to 50%"
  },
  {
    "COMPOUND": "CCCCNc1cc(C(=O)OC)cc(S(=N)(=O)Nc2cccc(Cl)c2)c1Oc1ccccc1 (stereo not drawn) [Compound 22]",
    "inhibition at 20 µM": "30 to 50%"
  },
  {
    "COMPOUND": "CCCCNc1cc(C(=O)O)cc(S(C)(=N)=O)c1Oc1ccccc1 (stereo not drawn) [Compound 130]",
    "inhibition at 20 µM": "50 to 75%"
  },
  {
    "COMPOUND": "CCCCNc1cc(C(=O)OC)cc(S(=N)(=O)N2CCOCC2)c1Oc1ccccc1 (stereo not drawn) [Compound 6]",
    "inhibition at 20 µM": "30 to 50%"
  },
  {
    "COMPOUND": "CCCCNc1cc(C(=O)O)cc(S(=N)(=O)NC2CN3CCC2CC3)c1Oc1ccccc1 (stereo not drawn) [Compound 96]",
    "inhibition at 20 µM": "30 to 50%"
  },
  {
    "COMPOUND": "CCCCNc1cc(C(=O)NCCOC)cc(S(=N)(=O)Nc2ccccc2)c1Oc1ccccc1 (stereo not drawn) [Compound 109]",
    "inhibition at 20 µM": "10 to 30%"
  },
  {
    "COMPOUND": "CCCCNc1cc(C(=O)NCC(F)(F)F)cc(S(=N)(=O)N2Cc3ccccc3C2)c1Oc1ccccc1 (stereo not drawn) [Compound 115]",
    "inhibition at 20 µM": "10 to 30%"
  },
  {
    "COMPOUND": "CCCCNc1cc(C(=O)OC)cc(S(=N)(=O)Nc2ccccc2Cl)c1Oc1ccccc1 (stereo not drawn) [Compound 26]",
    "inhibition at 20 µM": "10 to 30%"
  },
  {
    "COMPOUND": "CCCCNc1cc(C(=O)OC)cc(S(=N)(=O)NCC2CCN(C)CC2)c1Oc1ccccc1 (stereo not drawn) [Compound 50]",
    "inhibition at 20 µM": "30 to 50%"
  },
  {
    "COMPOUND": "CCCCNc1cc(C(=O)O)cc(S(=N)(=O)Nc2cccc(OC)c2)c1Oc1ccccc1 (stereo not drawn) [Compound 65]",
    "inhibition at 20 µM": "≥ 75%"
  },
  {
    "COMPOUND": "CCCCNc1cc(C(=O)O)cc(S(=N)(=O)NCCc2nccs2)c1Oc1ccccc1 (stereo not drawn) [Compound 86]",
    "inhibition at 20 µM": "≥ 75%"
  }
]
